// values below are reported solubility thermodynamic
# TEST: Solubility (kinetic, thermodynamic)
# Type: physicochemical
# CONDITION_SUMMARY: thermodynamic from solid
METRIC: solubility thermodynamic (µM)

structure_smiles_string=O=C(O)CCCCCOc1ccccc1CN(C(=O)c1ccc(-c2ccco2)cc1)C1CC1 metric="solubility thermodynamic" result_number=253
structure_smiles_string=Cc1cc(SCc2sc(-c3ccc(C(F)(F)F)cc3)nc2C)ccc1OCC(=O)O metric="solubility thermodynamic" result_number=246

* * *

# TARGET_OR_TEST_SYSTEM: PPARδ (Homo sapiens)
# Construct: expressed in transfected cells; host or cells: PathHunter NHR cell lines
# Sequence (Q03181 1-441): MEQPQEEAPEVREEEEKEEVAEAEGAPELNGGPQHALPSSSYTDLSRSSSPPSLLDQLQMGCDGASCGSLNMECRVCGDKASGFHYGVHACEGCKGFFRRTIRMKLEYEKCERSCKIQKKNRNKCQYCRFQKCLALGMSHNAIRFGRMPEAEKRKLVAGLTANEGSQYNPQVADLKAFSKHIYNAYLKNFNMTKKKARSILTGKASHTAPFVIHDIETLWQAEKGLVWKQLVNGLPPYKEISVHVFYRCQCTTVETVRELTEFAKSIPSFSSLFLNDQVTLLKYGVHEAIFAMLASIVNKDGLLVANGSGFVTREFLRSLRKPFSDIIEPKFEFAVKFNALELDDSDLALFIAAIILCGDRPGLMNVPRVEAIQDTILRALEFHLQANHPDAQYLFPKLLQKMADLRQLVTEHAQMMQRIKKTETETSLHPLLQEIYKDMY
# TEST: Nuclear Hormone Receptor (NHR) protein interaction assay (PathHunter), agonist format
# Format: cell-based
# CONDITION_SUMMARY: PathHunter NHR cell line, agonist format; read-out: NHR protein interaction assay, EC50 (nM) for PPARδ
METRIC: EC50 (nM)

structure_smiles_string=CC(C)N(Cc1ccccc1OCCCCCC(=O)O)C(=O)c1ccc(-c2ccoc2)cc1 unit_of_measure=nM result_number=36.8
structure_smiles_string=CC(C)N(Cc1ccccc1OCCCCCC(=O)O)C(=O)c1ccc(-c2ccco2)cc1 unit_of_measure=nM result_number=5.9
structure_smiles_string=CC(C)N(Cc1ccccc1OCCCCCC(=O)O)C(=O)c1ccc(-c2ccsc2)cc1 unit_of_measure=nM result_number=8.02
